molecular target: Regulator of G-protein signaling 17 (Homo sapiens) (UniProt Q9UGC6); experiment: Inhibition of cell membrane translocation of N-terminal GFP tagged and N-terminal deficient RGS17 (unknown origin) expressed in HEK293T cells co-expressing Galpha-o assessed as induction of delocalization of RGS17deltaN to cytoplasm at 100 uM incubated for 10 mins by confocal microscopy; type: cell-based
Sequence (Q9UGC6 whole entry): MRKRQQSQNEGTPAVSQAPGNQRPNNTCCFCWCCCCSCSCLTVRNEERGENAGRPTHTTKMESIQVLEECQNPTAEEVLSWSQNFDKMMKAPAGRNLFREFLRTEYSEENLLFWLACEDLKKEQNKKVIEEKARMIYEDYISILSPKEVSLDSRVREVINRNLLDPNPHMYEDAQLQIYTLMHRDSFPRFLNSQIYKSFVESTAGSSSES
Active and inactive are the calls of the source. The rule behind the calls is not given here.
Classes used: active, inactive

molecule=O=c1c(-c2cc(O)c(O)c(O)c2)coc2cc(O)c(O)c(O)c12 study_system="Regulator of G-protein signaling 17 (Homo sapiens) (UniProt Q9UGC6)" category=active
molecule=Cc1ccc(-n2sc(=O)n(Cc3ccc(F)cc3)c2=O)cc1 study_system="Regulator of G-protein signaling 17 (Homo sapiens) (UniProt Q9UGC6)" category=inactive
molecule="CC(C)=CCC[C@]1(C)C=Cc2c(O)c3c(c(CC=C(C)C)c2O1)O[C@]12C(=C[C@@H]4C[C@H]1C(C)(C)O[C@@]2(C/C=C(/C)C(=O)O)C4=O)C3=O [GAMBOGIC ACID]" study_system="Regulator of G-protein signaling 17 (Homo sapiens) (UniProt Q9UGC6)" category=inactive
molecule=C[n+]1cc2c3c(ccc2c2ccc4cc5c(cc4c21)OCO5)OCO3 study_system="Regulator of G-protein signaling 17 (Homo sapiens) (UniProt Q9UGC6)" category=active
molecule=CC1=C(O)C(=O)C=C2C1=CC=C1[C@@]2(C)CC[C@@]2(C)[C@@H]3C[C@](C)(C(=O)O)CC[C@]3(C)CC[C@]12C study_system="Regulator of G-protein signaling 17 (Homo sapiens) (UniProt Q9UGC6)" category=active

* * *

molecular target: Regulator of G-protein signaling 17 (Homo sapiens); assay: Covalent binding affinity to N-terminal deficient RGS17 (unknown origin) assessed as covalent protein-compound adduct formation at 50 uM incubated for 1 hr by MALDI-TOF mass spectrometry
Calls of active or inactive are those of the source. The calls are words filed in the database; no cut-off is given here.
reported metric: Activity

compound=CC1=C(O)C(=O)C=C2C1=CC=C1[C@@]2(C)CC[C@@]2(C)[C@@H]3C[C@](C)(C(=O)O)CC[C@]3(C)CC[C@]12C reported_metric=Activity experimental_result=inactive
compound=O=c1c(-c2cc(O)c(O)c(O)c2)coc2cc(O)c(O)c(O)c12 reported_metric=Activity experimental_result=inactive
compound="CC(C)=CCC[C@]1(C)C=Cc2c(O)c3c(c(CC=C(C)C)c2O1)O[C@]12C(=C[C@@H]4C[C@H]1C(C)(C)O[C@@]2(C/C=C(/C)C(=O)O)C4=O)C3=O [GAMBOGIC ACID]" reported_metric=Activity experimental_result=inactive
compound=C[n+]1cc2c3c(ccc2c2ccc4cc5c(cc4c21)OCO5)OCO3 reported_metric=Activity experimental_result=inactive

* * *

molecular target: Regulator of G-protein signaling 17 (Homo sapiens) (UniProt Q9UGC6); assay: Inhibition of RGS17 (unknown origin) assessed as reduction in RGS17 interaction with 6x-his-tagged biotinylated Galpha-o interaction by Alpha-screen assay
reported metric: inhibition

smiles_string=O=c1c(-c2cc(O)c(O)c(O)c2)coc2cc(O)c(O)c(O)c12 experimental_result="Dose-dependent effect"
smiles_string=C[n+]1cc2c3c(ccc2c2ccc4cc5c(cc4c21)OCO5)OCO3 experimental_result="Dose-dependent effect"
smiles_string=CC1=C(O)C(=O)C=C2C1=CC=C1[C@@]2(C)CC[C@@]2(C)[C@@H]3C[C@](C)(C(=O)O)CC[C@]3(C)CC[C@]12C experimental_result="Dose-dependent effect"
smiles_string=CC(C)=CCC[C@]1(C)C=Cc2c(O)c3c(c(CC=C(C)C)c2O1)O[C@]12C(=C[C@@H]4C[C@H]1C(C)(C)O[C@@]2(C/C=C(/C)C(=O)O)C4=O)C3=O experimental_result="Dose-dependent effect"
